# Lookup of reported self-aminoacylation keyed by entry
# Test system: biotinyl-Val-oxazolone
# methodSummary: self-aminoacylation, catalytic enhancement (BVO) (fold over background); higher = more active; k-Seq, kA / k0A0; sequences stand for … in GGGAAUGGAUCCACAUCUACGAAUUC…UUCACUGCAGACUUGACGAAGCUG
This sample holds only a part of the variants without activity.
readoutKind: self-aminoacylation

[
  {
    "inputSequence": "AUUACUCUGGUCAUCGAGUAA [Fam2.1 aminoacylation ribozyme variant]",
    "studySystem": "biotinyl-Val-oxazolone",
    "readoutKind": "self-aminoacylation",
    "recordedMeasurement": 1.79
  },
  {
    "inputSequence": "AUUCAUCUAGGUCACCGGGUG [Fam2.2 aminoacylation ribozyme variant]",
    "studySystem": "biotinyl-Val-oxazolone",
    "readoutKind": "self-aminoacylation",
    "recordedMeasurement": 3.34
  },
  {
    "inputSequence": "AGUACCCUGGUCAUCGAUUGA [Fam2.1 aminoacylation ribozyme variant]",
    "studySystem": "biotinyl-Val-oxazolone",
    "readoutKind": "self-aminoacylation",
    "recordedMeasurement": 0.981
  },
  {
    "inputSequence": "AAGUUUGCUAAUAGUCGUAAA [Fam3.1 aminoacylation ribozyme variant]",
    "studySystem": "biotinyl-Val-oxazolone",
    "readoutKind": "self-aminoacylation",
    "recordedMeasurement": 1.04
  },
  {
    "inputSequence": "AUUAACCUAGGUCAUCGGUUG [Fam2.2 aminoacylation ribozyme variant]",
    "studySystem": "biotinyl-Val-oxazolone",
    "readoutKind": "self-aminoacylation",
    "recordedMeasurement": 1.09
  },
  {
    "inputSequence": "AUUACCGUGGUCAUAGAGUGA [Fam2.1 aminoacylation ribozyme variant]",
    "studySystem": "biotinyl-Val-oxazolone",
    "readoutKind": "self-aminoacylation",
    "recordedMeasurement": 3.97
  },
  {
    "inputSequence": "CAACAGUUCAAGCAAUCGGUC [Fam1B.1 aminoacylation ribozyme variant]",
    "studySystem": "biotinyl-Val-oxazolone",
    "readoutKind": "self-aminoacylation",
    "recordedMeasurement": 1.15
  },
  {
    "inputSequence": "CCACACUUCAAGCAAUCCCUC [Fam1B.1 aminoacylation ribozyme variant]",
    "studySystem": "biotinyl-Val-oxazolone",
    "readoutKind": "self-aminoacylation",
    "recordedMeasurement": 1.15
  },
  {
    "inputSequence": "GUUCACCUAGGUCAGCGGGUG [Fam2.2 aminoacylation ribozyme variant]",
    "studySystem": "biotinyl-Val-oxazolone",
    "readoutKind": "self-aminoacylation",
    "recordedMeasurement": 3.23
  }
]

###

# Tested on: biotinyl-Ile-oxazolone
# methodSummary: self-aminoacylation, catalytic enhancement (BIO) (fold over background); higher = more active; k-Seq, kA / k0A0; sequences stand for … in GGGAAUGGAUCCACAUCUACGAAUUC…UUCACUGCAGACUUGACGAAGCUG
Fewer inactive variants are shown than the library holds.
Rule: self-aminoacylation under 1 gives FALSE, otherwise TRUE.

[
  {
    "inputSequence": "CUACUUAAAACAAUCGUUCUG [Fam1A.1 aminoacylation ribozyme variant]",
    "studySystem": "biotinyl-Ile-oxazolone",
    "category": "FALSE"
  },
  {
    "inputSequence": "AUUCAGAUAGGUCAUCGGGUG [Fam2.2 aminoacylation ribozyme variant]",
    "studySystem": "biotinyl-Ile-oxazolone",
    "category": "TRUE"
  },
  {
    "inputSequence": "GUUACUCUGGUCAUCGAGUGA [Fam2.1 aminoacylation ribozyme variant]",
    "studySystem": "biotinyl-Ile-oxazolone",
    "category": "TRUE"
  },
  {
    "inputSequence": "CCACAGUUCAAGCAAUCGGGC [Fam1B.1 aminoacylation ribozyme variant]",
    "studySystem": "biotinyl-Ile-oxazolone",
    "category": "TRUE"
  },
  {
    "inputSequence": "CCCCACUUCACGCAAUCGGUC [Fam1B.1 aminoacylation ribozyme variant]",
    "studySystem": "biotinyl-Ile-oxazolone",
    "category": "TRUE"
  },
  {
    "inputSequence": "AUUCACAUAGGUGAUCGGGUG [Fam2.2 aminoacylation ribozyme variant]",
    "studySystem": "biotinyl-Ile-oxazolone",
    "category": "TRUE"
  },
  {
    "inputSequence": "CCACACUUCACGCAAACGGUC [Fam1B.1 aminoacylation ribozyme variant]",
    "studySystem": "biotinyl-Ile-oxazolone",
    "category": "FALSE"
  }
]

###

# System: biotinyl-Trp-oxazolone
# methodSummary: self-aminoacylation, catalytic enhancement (BWO) (fold over background); higher = more active; k-Seq, kA / k0A0; sequences stand for … in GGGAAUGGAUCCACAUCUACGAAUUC…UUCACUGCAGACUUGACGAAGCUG
Fewer inactive variants are shown than the library holds.
Assign class 1 to entries whose self-aminoacylation meets or exceeds 1; assign class 0 to the rest.

[
  {
    "inputSequence": "CCACACUACAAGCAAUCGCUC [Fam1B.1 aminoacylation ribozyme variant]",
    "category": "class 1"
  },
  {
    "inputSequence": "AGUACCCUGGUCAUCGAGCGA [Fam2.1 aminoacylation ribozyme variant]",
    "category": "class 1"
  },
  {
    "inputSequence": "CUACUUCAAACAAUCAGGCUG [Fam1A.1 aminoacylation ribozyme variant]",
    "category": "class 1"
  },
  {
    "inputSequence": "CCAUACUUCAAGCAAGCGGUC [Fam1B.1 aminoacylation ribozyme variant]",
    "category": "class 0"
  },
  {
    "inputSequence": "AAGUUUGCUAAUAGUAGCACG [Fam3.1 aminoacylation ribozyme variant]",
    "category": "class 0"
  },
  {
    "inputSequence": "AUUAGCCUGGACAUCGAGUGA [Fam2.1 aminoacylation ribozyme variant]",
    "category": "class 1"
  },
  {
    "inputSequence": "AUUAACCUAGGUCACCGGGUG [Fam2.2 aminoacylation ribozyme variant]",
    "category": "class 1"
  },
  {
    "inputSequence": "AUUACCUUGUUCAUCGAGUGA [Fam2.1 aminoacylation ribozyme variant]",
    "category": "class 1"
  },
  {
    "inputSequence": "AUGCACCUAGGUCACCGGGUG [Fam2.2 aminoacylation ribozyme variant]",
    "category": "class 1"
  },
  {
    "inputSequence": "CCACACUUCAAGCAUUCGGAC [Fam1B.1 aminoacylation ribozyme variant]",
    "category": "class 0"
  },
  {
    "inputSequence": "AAUACCCUGCUCAUCGAGUGA [Fam2.1 aminoacylation ribozyme variant]",
    "category": "class 1"
  },
  {
    "inputSequence": "CUACUUCAAACAAUCGUACUG [Fam1A.1 aminoacylation ribozyme variant]",
    "category": "class 0"
  },
  {
    "inputSequence": "AUUGACCUAGGUCAUGGGGUG [Fam2.2 aminoacylation ribozyme variant]",
    "category": "class 1"
  },
  {
    "inputSequence": "AUACUUCAAACAAUCGGUCUC [Fam1A.1 aminoacylation ribozyme variant]",
    "category": "class 1"
  },
  {
    "inputSequence": "AAGUUUGCGAAAAGUCGCAAG [Fam3.1 aminoacylation ribozyme variant]",
    "category": "class 1"
  },
  {
    "inputSequence": "CUCCUUCAAAGAAUCGGUCUG [Fam1A.1 aminoacylation ribozyme variant]",
    "category": "class 1"
  },
  {
    "inputSequence": "CCACACUUCAAGUAAUCGGUC [Fam1B.1 aminoacylation ribozyme variant]",
    "category": "class 1"
  }
]

###

This section presents sequences with their documented self-aminoacylation values.
# Tested on: biotinyl-Phe-oxazolone
# methodSummary: self-aminoacylation, catalytic enhancement (BFO) (fold over background); higher = more active; k-Seq, kA / k0A0; sequences stand for … in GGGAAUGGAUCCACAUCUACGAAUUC…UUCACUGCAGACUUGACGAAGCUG
Fewer inactive variants are shown than the library holds.
readoutKind: self-aminoacylation

[
  {
    "inputSequence": "CCCCACUUUAAGCAAUCGGUC [Fam1B.1 aminoacylation ribozyme variant]",
    "recordedMeasurement": 2.4
  },
  {
    "inputSequence": "AUCACCCUGUUCAUCGAGUGA [Fam2.1 aminoacylation ribozyme variant]",
    "recordedMeasurement": 30
  },
  {
    "inputSequence": "AACUAUGCUAAUAGUCGCAAG [Fam3.1 aminoacylation ribozyme variant]",
    "recordedMeasurement": 2.45
  },
  {
    "inputSequence": "CUACUUCUAACAAUCGGCCUG [Fam1A.1 aminoacylation ribozyme variant]",
    "recordedMeasurement": 1.01
  },
  {
    "inputSequence": "CCACCCUUAAAGCAAUCGGUC [Fam1B.1 aminoacylation ribozyme variant]",
    "recordedMeasurement": 1.59
  },
  {
    "inputSequence": "CCACACUUCAAGCAAUCUGUG [Fam1B.1 aminoacylation ribozyme variant]",
    "recordedMeasurement": 0.656
  },
  {
    "inputSequence": "CCGCCCUUCAAGCAAUCGGUC [Fam1B.1 aminoacylation ribozyme variant]",
    "recordedMeasurement": 38.9
  },
  {
    "inputSequence": "CUAUUUCAAACAAUGGGUCUG [Fam1A.1 aminoacylation ribozyme variant]",
    "recordedMeasurement": 0.641
  }
]
